Field: TGI. Provide a value for each of the compounds that follow.
- System: DMS 114 small cell lung
- Protocol Summary: NCI tumour cell line growth inhibition, 48 h

compound=CSC(=S)N(C)c1nc(=[N+](C)C)ss1 endpoint_result="> 100 µM"
compound=CCN(CC)CCCCC1CCN(CC(=O)N2c3ccccc3NC(=O)c3ccccc32)CC1 endpoint_result="> 100 µM"
compound=CC(=O)Nc1ccc(-c2nnc(SCC(=O)Nc3ccccc3Cl)o2)cc1 endpoint_result="> 100 µM"
compound=COc1ccccc1NC(=O)CC(=O)n1nc(C)c(N=Nc2ccccc2F)c1C endpoint_result="> 100 µM"
compound="COc1ncnc2c(NC3OC(CO)C(O)C3O)ncnc12 (centres undefined)" endpoint_result="1.09 µM"
compound="CCNC(=O)C(O)C1(O)CCC2[C@@H]3CCC4=CC(=O)C=C[C@]4(C)C3[C@@H](O)C[C@@]21C (some centres undefined)" endpoint_result="> 100 µM"

Respectfully, I request TGI for each entry included below.
1. CC(SC1=CC(=O)c2c(Cl)ccc(O)c2C1=O)C(=O)O (centres undefined)
2. COc1cc2c(cc1OC)-c1c(cnn1C1OC(COC(C)=O)C(OC(C)=O)C(OC(C)=O)C1OC(C)=O)CC2 (centres undefined)
3. Cc1cc2c(C(C)C)c(O)c(O)c3coc(/c1=c1/c(C)cc4c(C(C)C)c(=O)c(=O)c5coc1c45)c32
4. COC(=O)c1c/c(=N\NC(=O)CC(=O)Nc2ccccc2Cl)c2ccccc2o1
5. O=C(CC(=O)Nc1ccc(Cl)cc1)NNCC(=O)Nc1nc(-c2ccccc2)cs1

-- reply
38.4 µM
> 100 µM
6.48 µM
> 100 µM
> 100 µM

###

- System: DLD-1 colon
- Protocol Summary: NCI tumour cell line growth inhibition, 48 h
Field: TGI. Provide a value for each of the compounds that follow.

# example entries with known answers
compound="CN1C(c2ccccc2)CC(=Nc2ccccc2)CC1c1ccccc1 (centres undefined)" target_or_test_system="DLD-1 colon" endpoint_result="24.2 µM"
compound=COc1ccc(CCN2CCC(C#N)(c3ccc(OC)c(OC)c3)CC2)cc1OC target_or_test_system="DLD-1 colon" endpoint_result="> 100 µM"
compound=O=[N+]([O-])c1ccc(Cc2nc3ccccc3s2)cc1 target_or_test_system="DLD-1 colon" endpoint_result="> 100 µM"
compound=O=S(=O)(O)C(F)(F)C(F)(F)C(F)(F)C(F)(F)F target_or_test_system="DLD-1 colon" endpoint_result="> 100 µM"
compound=CCCOc1ccc(/C=C\c2cc(OC)c(OC)c(OC)c2)cc1 target_or_test_system="DLD-1 colon" endpoint_result="> 100 µM"

Respectfully, I request TGI for each entry included below.
1. COC(=O)c1nc(-c2ccc(Cl)c(Cl)c2)nc2ccccc12
2. C/C(C=O)=C1\C(O)C[C@]1(C)C1CC(C)(C)CC1O (some centres undefined)
3. CCNC(=O)C(O)C1(O)CCC2[C@@H]3CCC4=CC(=O)C=C[C@]4(C)C3[C@@H](O)C[C@@]21C (some centres undefined)
4. CCc1ccccc1NC(=O)CCc1nc(=S)[nH][nH]1
5. CC(=O)OC1[C@H]2c3cc4c(cc3CN3CCC(C[C@@H]1OC(C)=O)C23)OCO4 (some centres undefined)
6. COc1ccc2c(c1)c(Cc1c(C)n(C)c3ccc(OC)cc13)c(C)n2C

-- reply
1: > 100 µM; 2: > 100 µM; 3: > 100 µM; 4: > 100 µM; 5: > 75 µM; 6: > 100 µM

Respectfully, I request TGI for each entry included below.
1. Cc1ccccc1C(C#N)/C(=N/NC(=O)c1cc2ccccc2cc1O)C(=O)Nc1cccc(Cl)c1 (centres undefined)
2. CCc1cc(Cc2cc(CC)c(NC(=O)C3=CC(=O)CC(c4ccc(OC)cc4)O3)c(CC)c2Cl)c(Cl)c(CC)c1NC(=O)C1=CC(=O)CC(c2ccc(OC)cc2)O1 (centres undefined)
3. C/C(=N\NC(=S)N(C)C)c1ncc[nH]1

-- reply
> 100 µM
34.8 µM
> 100 µM

Respectfully, I request TGI for each entry included below.
1. Cc1ccc(S(=O)(=O)N/N=C2\C(=O)C3CC2C(Cl)C3Cl)cc1 (centres undefined)
2. COc1ccccc1NC(=O)CC(=O)n1nc(C)c(N=Nc2ccccc2F)c1C
3. C/C(=N\NC(N)=S)c1ccc(/C(C)=N/NC(N)=S)cc1
4. c1ccc(C2=NN(c3ccccc3)C3(S2)SC(c2ccccc2)(c2ccccc2)c2ccccc23)cc1 (centres undefined)

-- reply
1. > 100 µM
2. > 100 µM
3. > 100 µM
4. > 100 µM
